- Assay Info: Urinary excretion of 3H desmopressin injected intravenously (previous studies)
- Assay type: in vivo
- Condition Info: hairless, urine, iv, total radioactivity, injected intravenously in HGPs, read-out: fraction excreted in urine
Measured Metric: dose excreted (%)
The response must be a number in % with no trailing unit.

(Q) Return dose excreted for the following molecule: NC(=O)CC[C@@H]1NC(=O)[C@H](Cc2ccccc2)NC(=O)[C@H](Cc2ccc(O)cc2)NC(=O)CCSSC[C@@H](C(=O)N2CCC[C@H]2C(=O)N[C@H](CCCN=C(N)N)C(=O)NCC(N)=O)NC(=O)[C@H](CC(N)=O)NC1=O
(A) 71
